Target: LPA2 receptor (LPA2R) (Homo sapiens)
Sequence (Q9HBW0 whole entry): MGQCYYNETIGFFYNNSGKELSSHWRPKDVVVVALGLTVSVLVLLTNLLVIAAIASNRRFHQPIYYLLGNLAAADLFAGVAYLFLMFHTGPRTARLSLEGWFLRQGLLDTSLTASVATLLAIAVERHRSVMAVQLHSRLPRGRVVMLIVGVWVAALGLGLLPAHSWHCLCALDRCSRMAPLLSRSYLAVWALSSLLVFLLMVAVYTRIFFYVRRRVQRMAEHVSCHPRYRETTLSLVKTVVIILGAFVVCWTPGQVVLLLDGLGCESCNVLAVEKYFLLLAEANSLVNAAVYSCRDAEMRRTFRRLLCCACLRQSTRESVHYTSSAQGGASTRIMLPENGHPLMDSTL
Assay: LPA2R-Calciumflux assay (intracellular calcium mobilisation, FLIPR)
Settings: U2OS cells recombinant expressing LPA2R; inhibition of LPA-induced Ca-flux; 10 concentrations 30 uM to 1 nM, 1% DMSO
Reported values of IC50 for individual entries
REPORTED_ENDPOINT: IC50

# COMPOUND, ASSAY_RESULT
records = [
    ("Cc1ccc(CN2CCCCC2c2nc3ccc(S(N)(=O)=O)cc3[nH]2)cc1C(F)(F)F (stereo not drawn)", "500 to 5000 nM"),
    ("Fc1ccc(CCN2CCCCC2c2cc3cc(F)ccc3[nH]2)cc1 (stereo not drawn)", "500 to 5000 nM"),
    ("CC(C)n1cc(CN2CCCCC2c2cc3ccccc3[nH]2)c2ccccc21 (stereo not drawn)", "500 to 5000 nM"),
    ("Cc1ccc(CN2CCC3C[C@]32c2nc3cc(F)ccc3[nH]2)cc1C (stereo partly drawn)", "5000 to 15000 nM"),
    ("Fc1ccc(CN2CCCC[C@@H]2c2cc3ccccc3[nH]2)cc1", "< 500 nM"),
    ("Cc1ccc(CN2CCCC[C@H]2c2cc3cc(F)ccc3[nH]2)cc1C", "500 to 5000 nM"),
    ("Cc1ccc(CN2CCCC[C@H]2c2nc3cc(F)ccc3[nH]2)cc1C", "< 500 nM"),
    ("Fc1ccc2[nH]c(C3CCCCN3Cc3cccc(Br)c3)cc2c1 (stereo not drawn)", "500 to 5000 nM"),
    ("COc1cccc(CN2CCC(C)CC2c2cc3cc(Cl)ccc3[nH]2)c1 (stereo not drawn)", "500 to 5000 nM"),
    ("Cc1ccc(CN2CCCCC2c2cc3cc(F)ccc3[nH]2)cc1C (stereo not drawn)", "500 to 5000 nM"),
    ("Cc1cccc(CN2CCCCC2c2cc3cccc(C)c3[nH]2)c1 (stereo not drawn)", "500 to 5000 nM"),
    ("CC1CCCC(c2cc3cc(F)ccc3[nH]2)N1 (stereo not drawn)", "500 to 5000 nM"),
    ("Cc1ccc(CN2CCCCC2c2nc3ccc(S(N)(=O)=O)cc3[nH]2)cc1C (stereo not drawn)", "< 500 nM"),
    ("Fc1ccc(F)c2[nH]c(C3CCCCN3)cc12 (stereo not drawn)", "500 to 5000 nM"),
    ("Cc1ccc(CN2CCC(C)CC2c2cc3cc(F)ccc3[nH]2)cc1C (stereo not drawn)", "< 500 nM"),
    ("Cc1nc(CN2CCCCC2c2nc3cc(F)ccc3[nH]2)cs1 (stereo not drawn)", "500 to 5000 nM"),
    ("FC(F)(F)c1ccccc1CN1CCCCC1c1cc2ccccc2[nH]1 (stereo not drawn)", "5000 to 15000 nM"),
    ("Cc1ccc(CN2CCCC[C@H]2c2nc3cc(Cl)cnc3[nH]2)cc1C", "500 to 5000 nM"),
    ("Cc1cccc(CN2CCCCC2c2nc3ccc(Cl)cc3[nH]2)c1 (stereo not drawn)", "< 500 nM"),
    ("CC1CCCC(c2cc3cc(F)ccc3[nH]2)N1Cc1ccc(C#N)cc1 (stereo not drawn)", "500 to 5000 nM"),
    ("Cc1ccc(CN2CCC(C)CC2c2cc3ccccc3[nH]2)cc1C (stereo not drawn)", "500 to 5000 nM"),
    ("COc1ccc2[nH]c(C3CC(C)CCN3Cc3ccc(C)c(C)c3)cc2c1 (stereo not drawn)", "500 to 5000 nM"),
    ("COc1ccc(CN2CCCCC2c2cc3ccccc3[nH]2)cc1 (stereo not drawn)", "500 to 5000 nM"),
    ("Cc1ccc(CN2CCCCC2c2cc3cc(F)cc(F)c3[nH]2)cc1C (stereo not drawn)", "500 to 5000 nM"),
    ("Cc1cccc(CN2CCCCC2c2nc3ccc(Br)cc3[nH]2)c1 (stereo not drawn)", "< 500 nM"),
    ("COc1ccc(CN2CCCCC2c2nc3cc(F)ccc3[nH]2)cc1 (stereo not drawn)", "500 to 5000 nM"),
    ("Fc1ccc(CN2CCCCC2c2cc3cc(F)ccc3[nH]2)c(F)c1 (stereo not drawn)", "< 500 nM"),
    ("Cc1ccc(CN2CCCC[C@@H]2c2nc3cc(F)ccc3[nH]2)cc1C", "< 500 nM"),
    ("COc1ccc(CN2CCCCC2c2cc3cc(F)ccc3[nH]2)cc1 (stereo not drawn)", "< 500 nM"),
    ("c1ccc(CN2CCCCC2c2cc3ccccc3[nH]2)cc1 (stereo not drawn)", "500 to 5000 nM"),
    ("Cc1ccc(CN2CCCCC2c2nc3ccc(Br)cc3[nH]2)cc1C(F)(F)F (stereo not drawn)", "500 to 5000 nM"),
    ("Cc1ccc(CN2CCCCC2c2nc3ccccc3s2)cc1C (stereo not drawn)", "5000 to 15000 nM"),
    ("COc1cccc(CN2CCCCC2c2cc3cc(OC)ccc3[nH]2)c1 (stereo not drawn)", "< 500 nM"),
    ("N#Cc1cccc(CN2CCCCC2c2cc3cc(F)ccc3[nH]2)c1 (stereo not drawn)", "500 to 5000 nM"),
    ("Cc1ccc2[nH]c(C3CCCCN3Cc3ccc(F)cc3)cc2c1 (stereo not drawn)", "500 to 5000 nM"),
    ("Fc1ccc2[nH]c(C3CCCCN3Cc3ccc(Cl)c(Cl)c3)cc2c1 (stereo not drawn)", "5000 to 15000 nM"),
]
